Biological target: human MC3R (Homo sapiens)
Construct: expressed in transfected cells; host or cells: HEK293/CRE-luc/MC3R
Assay: cAMP accumulation assay (HTRF), antagonist activity at MC3R
Type: cell-based
Conditions: HEK293/CRE-luc/MC3R; 0.1 nM to 1,000 nM; read-out: Max Activation %
Positions of bridges follow the written chain, without caps; N, C: chain ends. Non-standard residues stand in square brackets, D forms with d. Residues, ends and D or L forms follow the SMILES beside them. d2Nal = N[C@H](Cc1ccc2ccccc2c1)C(=O)O; Hyp = O=C(O)[C@@H]1C[C@@H](O)CN1; Nle = CCCC[C@H](N)C(=O)O
endpoint: Emax

molecule | system tested | value measured
CCCC[C@H](NC(C)=O)C(=O)N[C@H]1CC(=O)NCCCC[C@@H](C(=O)N[C@@H](C(=O)N2CCC[C@@H]2C(N)=O)C(C)C)NC(=O)[C@H](Cc2c[nH]c3ccccc23)NC(=O)[C@H](CCCNC(=N)N)NC(=O)[C@@H](Cc2ccc3ccccc3c2)NC(=O)[C@H](Cc2c[nH]cn2)NC(=O)[C@@H]2CCCN2C1=O [Peptide D1] (Ac-[Nle]DPH[d2Nal]RWK[dV][dP]-NH2; lactam 2-8) | human MC3R (Homo sapiens) | 74.5%
CCCC[C@H](NC(C)=O)C(=O)N[C@H]1CC(=O)NCCCC[C@@H](C(=O)N2CCC[C@@H]2C(=O)N[C@@H](C(N)=O)C(C)C)NC(=O)[C@H](Cc2c[nH]c3ccccc23)NC(=O)[C@H](CCCNC(=N)N)NC(=O)[C@@H](Cc2ccc3ccccc3c2)NC(=O)[C@@H]2CCCN2C1=O [TCMCB02] (Ac-[Nle]DP[d2Nal]RWK[dP][dV]-NH2; lactam 2-7) | human MC3R (Homo sapiens) | 101%
CCCC[C@H](NC(C)=O)C(=O)N[C@H]1CC(=O)NCCCC[C@@H](C(=O)N[C@@H](C(=O)N2CCC[C@@H]2C(N)=O)C(C)C)NC(=O)[C@H](Cc2c[nH]c3ccccc23)NC(=O)[C@H](CCCNC(=N)N)NC(=O)[C@@H](Cc2ccc3ccccc3c2)NC(=O)[C@@H]2C[C@@H](O)CN2C1=O [Peptide D3] (Ac-[Nle]D[Hyp][d2Nal]RWK[dV][dP]-NH2; lactam 2-7) | human MC3R (Homo sapiens) | 111%

* * *

Target: human MC3R (Homo sapiens, UniProt P41968)
Construct: expressed in transfected cells; host or cells: HEK293/CRE-luc/MC3R
Sequence (P41968 whole entry): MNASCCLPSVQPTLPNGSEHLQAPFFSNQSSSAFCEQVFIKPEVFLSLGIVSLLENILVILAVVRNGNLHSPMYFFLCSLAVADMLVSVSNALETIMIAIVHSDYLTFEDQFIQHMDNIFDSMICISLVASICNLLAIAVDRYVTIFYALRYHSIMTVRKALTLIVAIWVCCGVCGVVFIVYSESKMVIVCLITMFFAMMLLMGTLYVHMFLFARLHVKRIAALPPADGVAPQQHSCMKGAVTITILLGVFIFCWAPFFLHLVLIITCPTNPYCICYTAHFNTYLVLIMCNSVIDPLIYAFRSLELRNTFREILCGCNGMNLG
Test: cAMP accumulation assay (HTRF), antagonist activity at MC3R
Assay type: cell-based
Conditions: dose-response fit, MC3R
Positions of bridges follow the written chain, without caps; N, C: chain ends. Non-standard residues stand in square brackets, D forms with d. No end group written: not given here. Nle = CCCC[C@H](N)C(=O)O
Hill Coefficient reference

substance | system tested | Hill Coefficient
LDPFFRWKVP [Peptide B7] | human MC3R (Homo sapiens, UniProt P41968) | −0.84
IPFFRWVP [Peptide B5] | human MC3R (Homo sapiens, UniProt P41968) | −0.76
VDPFFRWKVP [Peptide B9] | human MC3R (Homo sapiens, UniProt P41968) | 2.26
Leu-c(Asp-Pro-Phe-Phe-Arg-Trp-Lys)-Val-Pro (LDPFFRWKVP; lactam 2-8) [Peptide B3] | human MC3R (Homo sapiens, UniProt P41968) | 1.00
LDPWRWKVP [Peptide C7] | human MC3R (Homo sapiens, UniProt P41968) | −0.13
Leu-c(Asp-Pro-Trp-Arg-Trp-Lys)-Val-Pro (LDPWRWKVP; lactam 2-7) [Peptide C3] | human MC3R (Homo sapiens, UniProt P41968) | 49.34
Ac-Nle-c(Asp-Pro-Phe-Phe-Arg-Trp-Lys)-Dval-Dpro-NH2 (Ac-[Nle]DPFFRWK[dV][dP]-NH2; lactam 2-8; SMILES CCCC[C@H](NC(C)=O)C(=O)N[C@H]1CC(=O)NCCCC[C@@H](C(=O)N[C@@H](C(=O)N2CCC[C@@H]2C(N)=O)C(C)C)NC(=O)[C@H](Cc2c[nH]c3ccccc23)NC(=O)[C@H](CCCNC(=N)N)NC(=O)[C@H](Cc2ccccc2)NC(=O)[C@H](Cc2ccccc2)NC(=O)[C@@H]2CCCN2C1=O) [Peptide B1] | human MC3R (Homo sapiens, UniProt P41968) | 1.05
IPWRWVP [Peptide C5] | human MC3R (Homo sapiens, UniProt P41968) | 13.82
VPWRWVP [Peptide C6] | human MC3R (Homo sapiens, UniProt P41968) | 1.00
Ac-Nle-c(Asp-Pro-Trp-Arg-Trp-Lys)-Dval-Dpro-NH2 (Ac-[Nle]DPWRWK[dV][dP]-NH2; lactam 2-7; SMILES CCCC[C@H](NC(C)=O)C(=O)N[C@H]1CC(=O)NCCCC[C@@H](C(=O)N[C@@H](C(=O)N2CCC[C@@H]2C(N)=O)C(C)C)NC(=O)[C@H](Cc2c[nH]c3ccccc23)NC(=O)[C@H](CCCNC(=N)N)NC(=O)[C@H](Cc2c[nH]c3ccccc23)NC(=O)[C@@H]2CCCN2C1=O) [Peptide C1] | human MC3R (Homo sapiens, UniProt P41968) | 0.23
Ac-Leu-c(Asp-Pro-Phe-Phe-Arg-Trp-Lys)-Val-Pro-NH2 (Ac-LDPFFRWKVP-NH2; lactam 2-8; SMILES CC(=O)N[C@@H](CC(C)C)C(=O)N[C@H]1CC(=O)NCCCC[C@@H](C(=O)N[C@H](C(=O)N2CCC[C@H]2C(N)=O)C(C)C)NC(=O)[C@H](Cc2c[nH]c3ccccc23)NC(=O)[C@H](CCCNC(=N)N)NC(=O)[C@H](Cc2ccccc2)NC(=O)[C@H](Cc2ccccc2)NC(=O)[C@@H]2CCCN2C1=O) [Peptide B2] | human MC3R (Homo sapiens, UniProt P41968) | 0.34
LPFFRWVP [Peptide B4] | human MC3R (Homo sapiens, UniProt P41968) | 0.36
